Target: α-amylase (from human saliva, EC 3.2.1.1) (Homo sapiens)
Construct: gene AMY1A
Sequence (P0DUB6 16-511): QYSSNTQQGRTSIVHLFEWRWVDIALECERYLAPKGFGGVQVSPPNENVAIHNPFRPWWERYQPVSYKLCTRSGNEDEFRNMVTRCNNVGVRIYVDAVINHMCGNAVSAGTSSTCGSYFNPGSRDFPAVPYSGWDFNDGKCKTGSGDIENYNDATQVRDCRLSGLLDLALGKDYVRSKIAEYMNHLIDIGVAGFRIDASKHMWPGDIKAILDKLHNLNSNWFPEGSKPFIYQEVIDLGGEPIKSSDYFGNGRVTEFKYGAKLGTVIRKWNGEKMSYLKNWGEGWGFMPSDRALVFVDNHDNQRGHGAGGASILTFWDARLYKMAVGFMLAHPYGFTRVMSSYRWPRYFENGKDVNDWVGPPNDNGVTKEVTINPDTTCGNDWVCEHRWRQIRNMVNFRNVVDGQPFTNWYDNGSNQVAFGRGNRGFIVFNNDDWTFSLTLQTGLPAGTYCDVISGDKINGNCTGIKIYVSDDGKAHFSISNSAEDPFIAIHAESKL
Experiment: Enzyme inhibition kinetics (Lineweaver-Burk and Dixon plots) with amylose substrate; amylose-immobilized QCM-A hydrolysis assay
Assay type: biochemical
pKi: −log10 of the molar value.

{"columns": ["compound", "pKi"],
 "data": [
  ["CC(=O)O[C@H]1CC(C)(C)C(=C=C/C(C)=C/C=C/C(C)=C/C=C/C=C(C)/C=C/C=C(\\C)C(=O)C[C@@]23O[C@]2(C)C[C@@H](O)CC3(C)C)[C@](C)(O)C1 [fucoxanthin]", 4.44]
]}

src = paper PMC9877462
